The reported measurements were obtained from patent US12662479B2.

// reported DC50 for each item listed
Target: HiBit-BRG1 fusion protein (Homo sapiens)
Construct: expressed in transfected cells
Test: HiBiT-BRG1 cell-based degradation assay (Nano-Glo HiBiT Lytic Detection, 24 h)
Conditions: HeLa cells expressing HiBit-BRG1 and LgBit, read-out: BRG1 HiBit Degradation IC50

Sample records with DC50:
Cc1ncsc1-c1ccc(CNC(=O)[C@@H]2C[C@@H](O)CN2C(=O)[C@@H](NC(=O)CCCCCC(=O)N2CCN(c3cc(-c4cccc(-c5csc(NC(=O)CNC(=O)c6ccn(S(C)(=O)=O)c6)n5)c4)ccn3)CC2)C(C)(C)C)cc1	100 to 1000 nM
CC(C)(C)n1ccc(C(=O)N[C@@H](COCc2ccc(C(=O)NCCOC3CN(c4ccc5c(c4)C(=O)N(C4CCC(=O)NC4=O)C5=O)C3)cc2)C(=O)Nc2nc(-c3ccccc3)cs2)c1 (some centres unmarked)	< 100 nM
Cc1ncsc1-c1ccc(CNC(=O)[C@@H]2C[C@@H](O)CN2C(=O)[C@@H](NC(=O)CCCCCC(=O)NCc2cccc(-c3cccc(-c4csc(NC(=O)CNC(=O)c5ccn(S(C)(=O)=O)c5)n4)c3)c2)C(C)(C)C)cc1	100 to 1000 nM

Name the recorded DC50 for CS(=O)(=O)n1ccc(C(=O)NCC(=O)Nc2nc(-c3cccc(-c4cccc(CNC(=O)CCCOc5cccc6c5C(=O)N(C5CCC(=O)NC5=O)C6=O)c4)c3)cs2)c1 (centres unmarked) .
> 10000 nM

Please report the recorded DC50 for CS(=O)(=O)n1ccc(C(=O)N[C@@H](CCOCCCC(=O)NCCCCCNc2ccc3c(c2)C(=O)N(C2CCC(=O)NC2=O)C3=O)C(=O)Nc2nc(-c3ccccc3)cs2)c1 (some centres unmarked) .
> 10000 nM

* * *

In this section, each of the molecules is paired with its reported DC50.
Target: HiBit-BRG1 fusion protein (Homo sapiens)
Construct: expressed in transfected cells
Assay: HiBiT-BRG1 cell-based degradation assay (Nano-Glo HiBiT Lytic Detection, 24 h)
Conditions: HeLa cells expressing HiBit-BRG1 and LgBit, read-out: BRG1 HiBit Degradation IC50

Cc1ncsc1-c1ccc(CNC(=O)[C@@H]2C[C@@H](O)CN2C(=O)[C@@H](NC(=O)CCCCCCCNC(=O)C2(c3cc(-c4cccc(-c5csc(NC(=O)CNC(=O)c6ccn(S(C)(=O)=O)c6)n5)c4)ccn3)CC2)C(C)(C)C)cc1	< 0.1 µM

Next item in the queue.
Dear colleague, I am looking for the recorded DC50 of the following molecule: CN(CC(=O)N1CCC(C2CCN(C(=O)COc3cccc4c3C(=O)N(C3CCC(=O)NC3=O)C4=O)CC2)CC1)c1cc(-c2cccc(-c3csc(NC(=O)CNC(=O)c4ccn(S(C)(=O)=O)c4)n3)c2)ccn1 (centres unmarked)
> 10 µM

* * *

Biological target: HiBit-BRM fusion protein (Homo sapiens, UniProt P51531)
Construct: expressed in transfected cells
Sequence (P51531 whole entry, the tested form may be a part): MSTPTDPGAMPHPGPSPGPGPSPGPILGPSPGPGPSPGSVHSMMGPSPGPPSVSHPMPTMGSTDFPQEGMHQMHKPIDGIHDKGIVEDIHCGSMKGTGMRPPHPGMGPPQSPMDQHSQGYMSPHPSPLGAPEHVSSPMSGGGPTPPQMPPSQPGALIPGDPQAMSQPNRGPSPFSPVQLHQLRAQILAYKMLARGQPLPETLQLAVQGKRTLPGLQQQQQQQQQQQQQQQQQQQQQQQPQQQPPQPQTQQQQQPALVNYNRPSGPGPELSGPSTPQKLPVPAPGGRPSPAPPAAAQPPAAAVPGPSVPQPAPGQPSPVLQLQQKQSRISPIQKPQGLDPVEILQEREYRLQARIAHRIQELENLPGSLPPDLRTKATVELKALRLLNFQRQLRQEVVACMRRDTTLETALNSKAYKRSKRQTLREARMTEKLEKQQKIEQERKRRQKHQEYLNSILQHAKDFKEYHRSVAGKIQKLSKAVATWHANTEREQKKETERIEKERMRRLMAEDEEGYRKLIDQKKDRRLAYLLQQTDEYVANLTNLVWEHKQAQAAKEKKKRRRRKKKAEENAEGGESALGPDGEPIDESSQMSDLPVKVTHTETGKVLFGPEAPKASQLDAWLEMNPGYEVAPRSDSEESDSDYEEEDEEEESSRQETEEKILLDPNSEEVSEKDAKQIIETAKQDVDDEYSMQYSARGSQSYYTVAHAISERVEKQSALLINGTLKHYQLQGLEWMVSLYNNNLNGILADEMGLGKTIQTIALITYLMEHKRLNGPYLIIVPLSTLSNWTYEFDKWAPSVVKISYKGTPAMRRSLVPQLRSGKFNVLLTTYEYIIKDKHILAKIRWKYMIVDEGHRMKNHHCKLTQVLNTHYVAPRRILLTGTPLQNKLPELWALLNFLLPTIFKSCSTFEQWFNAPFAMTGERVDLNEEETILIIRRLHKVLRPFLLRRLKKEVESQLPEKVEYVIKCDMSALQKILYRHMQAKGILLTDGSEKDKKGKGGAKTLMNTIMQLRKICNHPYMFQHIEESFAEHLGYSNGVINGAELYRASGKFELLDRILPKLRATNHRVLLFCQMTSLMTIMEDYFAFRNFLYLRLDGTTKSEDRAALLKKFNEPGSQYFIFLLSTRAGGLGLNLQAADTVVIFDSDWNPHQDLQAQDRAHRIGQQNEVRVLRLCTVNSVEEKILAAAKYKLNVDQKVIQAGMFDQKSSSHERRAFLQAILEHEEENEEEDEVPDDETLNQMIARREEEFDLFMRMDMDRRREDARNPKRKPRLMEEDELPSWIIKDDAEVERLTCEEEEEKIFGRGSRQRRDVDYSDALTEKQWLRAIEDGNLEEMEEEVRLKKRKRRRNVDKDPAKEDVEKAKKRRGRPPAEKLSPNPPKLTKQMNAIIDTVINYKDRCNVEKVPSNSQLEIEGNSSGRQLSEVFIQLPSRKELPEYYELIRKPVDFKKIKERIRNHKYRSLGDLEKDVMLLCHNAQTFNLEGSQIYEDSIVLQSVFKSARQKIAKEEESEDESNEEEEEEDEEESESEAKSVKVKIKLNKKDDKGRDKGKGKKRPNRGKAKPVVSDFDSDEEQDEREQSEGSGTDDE
Assay: HiBiT-BRM cell-based degradation assay (Nano-Glo HiBiT Lytic Detection, 24 h)
Conditions: HeLa cells expressing HiBiT-BRM, read-out: BRM HiBit Degradation IC50
Where a name gives a salt, the structure may show the parent alone.
Entries annotated with measured DC50

Example results:
CS(=O)(=O)n1ccc(C(=O)NCC(=O)Nc2nc(C3CCCN(C(=O)C4CCN(CCOc5ccc6c(c5)C(=O)N(C5CCC(=O)NC5=O)C6=O)CC4)C3)cs2)c1 (stereo not drawn) [Compound 145, formate]	> 10 µM
Cc1ncsc1-c1ccc(CNC(=O)[C@@H]2C[C@@H](O)CN2C(=O)[C@@H](NC(=O)CCCCCCC(=O)N(C)Cc2cc(-c3cccc(-c4csc(NC(=O)CNC(=O)c5ccn(S(C)(=O)=O)c5)n4)c3)ccn2)C(C)(C)C)cc1	0.1 to 1 µM
CS(=O)(=O)n1ccc(C(=O)N[C@@H](COCc2ccc(C(=O)NCCCC#Cc3cccc4c3C(=O)N(C3CCC(=O)NC3=O)C4=O)cc2)C(=O)Nc2nc(-c3ccccc3)cs2)c1 (stereo partly drawn)	> 10 µM
Cc1cc(C(=O)NCC(=O)Nc2nc(-c3cccc(-c4ccnc(N(C)CC(=O)NCCOCCOCCNc5cccc6c5C(=O)N(C5CCC(=O)NC5=O)C6=O)c4)c3)cs2)cn1S(C)(=O)=O (stereo not drawn)	> 10 µM
CS(=O)(=O)n1ccc(C(=O)N[C@@H](COCc2ccc(CNC(=O)C3CCN(CCOc4ccc5c(c4)C(=O)N(C4CCC(=O)NC4=O)C5=O)CC3)cc2)C(=O)Nc2nc(-c3ccccc3)cs2)c1 (stereo partly drawn)	0.1 to 1 µM
Cc1c(C(=O)NCC(=O)Nc2nc(-c3cccc(-c4ccnc(N(C)CC(=O)NCCCCCCCCNC(=O)COc5cccc6c5C(=O)N(C5CCC(=O)NC5=O)C6=O)c4)c3)cs2)cn(S(C)(=O)=O)c1C (stereo not drawn)	> 10 µM
Cc1ncsc1-c1ccc(CNC(=O)[C@@H]2C[C@@H](O)CN2C(=O)[C@@H](NCc2cccc(-c3cccc(-c4csc(NC(=O)CNC(=O)c5ccn(S(C)(=O)=O)c5)n4)c3)c2)C(C)(C)C)cc1	> 10 µM
CS(=O)(=O)n1ccc(C(=O)N[C@@H](COCc2ccc(CNC(=O)CCOCCOCCOc3cccc4c3C(=O)N(C3CCC(=O)NC3=O)C4=O)cc2)C(=O)Nc2nc(-c3ccccc3)cs2)c1 (stereo partly drawn)	> 10 µM

Now look at this one.
So what's the measured DC50 for this one? Cc1ncsc1-c1ccc(CNC(=O)[C@@H]2C[C@@H](O)CN2C(=O)[C@@H](NC(=O)COCCOCC(=O)N2CCN(c3cc(-c4cccc(-c5csc(NC(=O)CNC(=O)c6ccn(S(C)(=O)=O)c6)n5)c4)ccn3)CC2)C(C)(C)C)cc1
0.1 to 1 µM

* * *

Known Dmax of a selection of compounds
Molecular target: HiBit-BRG1 fusion protein (Homo sapiens, UniProt P51532)
Construct: expressed in transfected cells
Sequence (P51532 whole entry, the tested form may be a part): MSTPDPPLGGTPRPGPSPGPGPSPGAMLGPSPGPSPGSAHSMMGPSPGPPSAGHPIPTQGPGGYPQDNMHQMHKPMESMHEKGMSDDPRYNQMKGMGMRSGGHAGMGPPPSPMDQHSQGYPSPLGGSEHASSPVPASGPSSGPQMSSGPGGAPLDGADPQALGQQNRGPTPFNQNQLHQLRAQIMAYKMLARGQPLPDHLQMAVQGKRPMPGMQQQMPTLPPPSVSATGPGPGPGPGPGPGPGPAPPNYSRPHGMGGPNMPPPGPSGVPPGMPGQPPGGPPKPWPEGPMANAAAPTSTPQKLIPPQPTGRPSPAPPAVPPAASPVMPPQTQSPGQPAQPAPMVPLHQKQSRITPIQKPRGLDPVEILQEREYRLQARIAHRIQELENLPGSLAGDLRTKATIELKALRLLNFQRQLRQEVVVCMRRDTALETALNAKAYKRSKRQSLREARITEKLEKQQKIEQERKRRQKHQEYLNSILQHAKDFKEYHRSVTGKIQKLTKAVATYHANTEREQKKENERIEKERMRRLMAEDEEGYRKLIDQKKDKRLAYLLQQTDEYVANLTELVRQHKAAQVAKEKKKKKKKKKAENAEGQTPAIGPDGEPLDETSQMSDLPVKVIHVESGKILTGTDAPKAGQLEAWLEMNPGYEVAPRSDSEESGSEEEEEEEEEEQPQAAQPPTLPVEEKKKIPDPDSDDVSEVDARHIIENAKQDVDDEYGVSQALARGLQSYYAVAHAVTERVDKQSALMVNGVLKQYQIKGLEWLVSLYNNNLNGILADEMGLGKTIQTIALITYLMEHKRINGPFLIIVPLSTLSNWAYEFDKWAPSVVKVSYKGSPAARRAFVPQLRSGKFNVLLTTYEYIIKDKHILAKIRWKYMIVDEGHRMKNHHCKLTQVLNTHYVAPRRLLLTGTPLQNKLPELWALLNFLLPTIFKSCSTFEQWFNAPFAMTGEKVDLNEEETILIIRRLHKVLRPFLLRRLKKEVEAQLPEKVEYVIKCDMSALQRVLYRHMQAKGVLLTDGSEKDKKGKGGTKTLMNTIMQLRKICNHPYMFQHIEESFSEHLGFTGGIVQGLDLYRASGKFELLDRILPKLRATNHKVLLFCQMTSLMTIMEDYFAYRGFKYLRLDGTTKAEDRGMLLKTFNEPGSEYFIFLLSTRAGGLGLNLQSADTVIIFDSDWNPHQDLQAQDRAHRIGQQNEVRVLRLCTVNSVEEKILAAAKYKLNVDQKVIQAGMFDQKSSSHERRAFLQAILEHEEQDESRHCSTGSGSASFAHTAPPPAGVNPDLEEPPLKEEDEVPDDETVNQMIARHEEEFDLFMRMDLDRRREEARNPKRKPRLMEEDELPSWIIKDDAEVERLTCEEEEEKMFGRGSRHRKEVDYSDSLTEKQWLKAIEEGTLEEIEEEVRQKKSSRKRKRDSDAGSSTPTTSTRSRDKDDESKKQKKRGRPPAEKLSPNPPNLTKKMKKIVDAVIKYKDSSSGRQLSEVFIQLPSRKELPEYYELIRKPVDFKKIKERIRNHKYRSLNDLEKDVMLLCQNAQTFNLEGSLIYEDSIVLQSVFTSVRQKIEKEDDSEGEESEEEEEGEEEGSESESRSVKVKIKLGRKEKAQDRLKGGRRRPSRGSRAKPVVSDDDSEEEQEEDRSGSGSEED
Assay: HiBiT-BRG1 cell-based degradation assay (Nano-Glo HiBiT Lytic Detection, 24 h)
Details: HeLa, HeLa cells expressing HiBit-BRG1 and LgBit, top dose 30 μM, read-out: BRG1 HiBit Degradation Maximum measured

CS(=O)(=O)n1ccc(C(=O)NCC(=O)Nc2nc(-c3cccc(-c4ccnc(C5(C(=O)NCCCCCCNc6ccc7c(c6)CN(C6CCC(=O)NC6=O)C7=O)CC5)c4)c3)cs2)c1 (stereo not shown) [Compound 53]	> 75%
CN(CCNC(=O)CN(C)c1cc(-c2cccc(-c3csc(NC(=O)CNC(=O)c4ccn(S(C)(=O)=O)c4)n3)c2)ccn1)CCNc1cccc2c1C(=O)N(C1CCC(=O)NC1=O)C2=O (stereo not shown) [Compound 21]	< 50%
Cc1ncsc1-c1ccc(CNC(=O)[C@@H]2C[C@@H](O)CN2C(=O)[C@@H](NC(=O)CCCCCCCCCCCCCC(=O)NCc2cccc(-c3cccc(-c4csc(NC(=O)CNC(=O)c5ccn(S(C)(=O)=O)c5)n4)c3)c2)C(C)(C)C)cc1 [Compound 126]	50 to 75%

Would you kindly look at the next entry?
Entry Cc1ncsc1-c1ccc(CNC(=O)[C@@H]2C[C@@H](O)CN2C(=O)[C@@H](NC(=O)CCCCC(=O)NCc2ccc(COC[C@H](NC(=O)c3ccn(S(C)(=O)=O)c3)C(=O)Nc3nc(-c4ccccc4)cs3)cc2)C(C)(C)C)cc1 [Compound 208] : reported Dmax = ?
< 50%

* * *

Target: HiBit-BRG1 fusion protein (Homo sapiens, UniProt P51532)
Construct: expressed in transfected cells
Experiment: HiBiT-BRG1 cell-based degradation assay (Nano-Glo HiBiT Lytic Detection, 24 h)
Conditions: HeLa cells expressing HiBit-BRG1 and LgBit, read-out: BRG1 HiBit Degradation IC50
Entries and their DC50 values follow.

Guide cases for DC50, answers given:
CS(=O)(=O)n1ccc(C(=O)NCC(=O)Nc2nc(-c3cccc(-c4ccnc(C5(C(=O)N6CCN(CCCOc7ccc8c(c7)C(=O)N(C7CCC(=O)NC7=O)C8=O)CC6)CC5)c4)c3)cs2)c1 (stereo not drawn)	100 to 1000 nM
CS(=O)(=O)n1ccc(C(=O)NCC(=O)Nc2nc(-c3cccc(-c4ccnc(N5CCN(C(=O)CCOCCOCCOc6ccc7c(c6)C(=O)N(C6CCC(=O)NC6=O)C7=O)CC5)c4)c3)cs2)c1 (stereo not drawn)	100 to 1000 nM
Cc1ncsc1-c1ccc(CNC(=O)[C@@H]2C[C@@H](O)CN2C(=O)[C@@H](NC(=O)C2CC2C(=O)NCc2cccc(-c3cccc(-c4csc(NC(=O)CNC(=O)c5ccn(S(C)(=O)=O)c5)n4)c3)c2)C(C)(C)C)cc1 (stereo partly drawn)	> 10000 nM
Cc1ncsc1-c1ccc(CNC(=O)[C@@H]2C[C@@H](O)CN2C(=O)[C@@H](NC(=O)CCCCCCC(=O)N(C)Cc2cc(-c3cccc(-c4csc(NC(=O)CNC(=O)c5ccn(S(C)(=O)=O)c5)n4)c3)ccn2)C(C)(C)C)cc1	100 to 1000 nM
CS(=O)(=O)n1ccc(C(=O)NCC(=O)Nc2nc(-c3cccc(-c4ccnc(C5(C(=O)NC6CCN(CCCCOc7ccc8c(c7)C(=O)N(C7CCC(=O)NC7=O)C8=O)CC6)CC5)c4)c3)cs2)c1 (stereo not drawn)	100 to 1000 nM
CS(=O)(=O)n1ccc(C(=O)N[C@@H](COCCCC(=O)NCCOc2ccc3c(c2)C(=O)N(C2CCC(=O)NC2=O)C3=O)C(=O)Nc2nc(-c3ccccc3)cs2)c1 (stereo partly drawn)	> 10000 nM

Entry Cc1ncsc1-c1ccc(CNC(=O)[C@@H]2C[C@@H](O)CN2C(=O)[C@@H](NC(=O)CCCCCCCCCCCCCC(=O)NCc2cccc(-c3cccc(-c4csc(NC(=O)CNC(=O)c5ccn(S(C)(=O)=O)c5)n4)c3)c2)C(C)(C)C)cc1 : reported DC50 = ?
100 to 1000 nM

For the molecule shown here, CS(=O)(=O)n1ccc(C(=O)N[C@@H](COCc2ccc(C(=O)NCCOCc3cccc(COCCOc4ccc5c(c4)C(=O)N(C4CCC(=O)NC4=O)C5=O)c3)cc2)C(=O)Nc2nc(-c3ccccc3)cs2)c1 (stereo partly drawn) , give the reported DC50.
100 to 1000 nM

State the recorded DC50 for this entry: CS(=O)(=O)n1ccc(C(=O)NCC(=O)Nc2nc(-c3cccc(-c4cccc(CNC(=O)C5CC5CNC(=O)COc5ccc6c(c5)C(=O)N(C5CCC(=O)NC5=O)C6=O)c4)c3)cs2)c1 (stereo not drawn)
100 to 1000 nM
